assayRemarks: Cmax in Sprague-Dawley rat at 2 mg/kg, iv administered as single dose by LC-MS/MS analysis
Assay type: ADME, organism-based
Design: dose 2 mg/kg, route intravenous
assayContext: in vivo
property: Cmax (ng/mL)
Answers are plain numbers, in ng/mL.

Query: Which Cmax is listed for C[C@@H](Oc1cncc(-c2cnc(N)nc2)c1)c1c(Cl)ccc(F)c1Cl ?
Reply: 1480

====

measuredTarget: CYP1A2 (Homo sapiens, UniProt P05177)
Sequence (P05177 whole entry): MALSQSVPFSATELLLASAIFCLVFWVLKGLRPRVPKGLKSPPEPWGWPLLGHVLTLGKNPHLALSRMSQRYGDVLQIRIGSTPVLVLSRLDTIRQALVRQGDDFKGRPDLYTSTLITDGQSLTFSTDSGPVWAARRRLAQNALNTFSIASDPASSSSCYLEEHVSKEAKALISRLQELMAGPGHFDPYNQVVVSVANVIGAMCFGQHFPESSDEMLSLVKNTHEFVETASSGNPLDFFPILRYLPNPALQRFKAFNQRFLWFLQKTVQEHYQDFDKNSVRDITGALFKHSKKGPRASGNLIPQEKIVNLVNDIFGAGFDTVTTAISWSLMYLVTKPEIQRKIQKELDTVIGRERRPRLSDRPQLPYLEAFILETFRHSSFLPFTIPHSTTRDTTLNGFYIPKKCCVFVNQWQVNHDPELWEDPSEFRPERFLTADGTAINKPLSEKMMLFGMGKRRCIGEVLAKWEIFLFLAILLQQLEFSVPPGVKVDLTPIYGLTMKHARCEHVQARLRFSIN
assayRemarks: Inhibition of recombinant human CYP1A2 assessed as remaining enzyme activity at 10 uM preincubated for 5 mins followed by NADPH addition measured after 20 mins by fluorescence assay relative to control
Type: ADME
assayContext: read-out: Activity
Binary call on activity at 20 min, 10 µM: TRUE from 50% upward, FALSE beneath that.

Sample answers from the record:
Query: Threshold query (activity at 20 min, 10 µM >= 50%) on N#Cc1ccc(-c2cncc(OCc3ccc(Cl)cc3Cl)c2)s1
Reply: TRUE

Query: Please indicate if the recorded activity at 20 min, 10 µM for Nc1ccc(-c2cncc(OCc3ccc(Cl)cc3Cl)c2)cn1 meets or exceeds 50%.
Reply: FALSE

Query: # bool: activity at 20 min, 10 µM of C[C@@H](Oc1cncc(-c2ccc(C#N)s2)c1)c1c(Cl)ccc(F)c1Cl >= 50%
Reply: FALSE

Query: Entry O=C(NCc1c(F)cccc1F)c1sccc1OCc1ccc(Cl)cc1Cl : is its activity at 20 min, 10 µM no less than 50%?
Reply: TRUE

Continuing:
Query: Record C[C@@H](Oc1cncc(-c2cnc(N)nc2)c1)c1c(Cl)ccc(F)c1Cl ; criterion: activity at 20 min, 10 µM no lower than 50%. Met?
Reply: TRUE
